tested on: PCI-30 (Head and Neck Carcinoma); test: combination Emax (second highest fraction inhibited in the dose matrix, 72 h); higher = more inhibition; extreme values may be limits of the assay
reported-metric: combination Emax
// return just the number, without any unit appended

## Input Assign combination Emax to the following record: CC1(C)CCC(CN2CCN(c3ccc(C(=O)NS(=O)(=O)c4ccc(NCC5CCOCC5)c([N+](=O)[O-])c4)c(Oc4cnc5[nH]ccc5c4)c3)CC2)=C(c2ccc(Cl)cc2)C1 [Venetoclax] + CN(C)CCCOc1ccc(-c2ccc3ncc4c(c3c2)n(C2CCOCC2)c(=O)n4C)cn1 [AZD0156] (first compound max 1 µM, 7x7, partner max 1 µM)
## Output 0.149

## Input Find the measured combination Emax of C[C@@H](c1ccc2nccn2c1)n1nnc2ncc(-c3cnn(C)c3)nc21 [Savolitinib] + Cc1c2c(nn1C)CSCc1cc(n(C)n1)CSc1cc(c3ccccc3c1)OCCCc1c(C(=O)O)n(C)c3c-2c(Cl)ccc13 [AZD5991] (first compound max 1 µM, 7x7, partner max 1 µM) and report it.
## Output 0.146

## Input Report combination Emax for COc1nnc2ccc(N3CCC(c4ccc(OCCN5CCN(C)C(=O)[C@H]5C)cc4)CC3)nn12 [AZD5153] + CCN(CCO)CCCOc1ccc2c(Nc3cc(CC(=O)Nc4cccc(F)c4)[nH]n3)ncnc2c1 [AZD2811] (first compound max 1 µM, 7x7, partner max 1 µM)
## Output 0.41

* * *

tested on: NCI-H2461 (Mesothelioma); assay: Bliss excess, mean over the matrix (fraction); higher = more synergy;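 note: after 72 h of two-drug dosing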
Threshold rule: Bliss excess greater than or equal to -0.02 is 1.0; below that, 0.0.

## Input Decide: Bliss excess of O=C(c1cc(Cc2n[nH]c(=O)c3ccccc23)ccc1F)N1CCN(C(=O)C2CC2)CC1 [Olaparib] + CN(CC[C@H](CSC1=CC=CC=C1)NC2=C(C=C(C=C2)S(=O)(=O)NC(=O)C3=CC=C(C=C3)N4CCC(CC4)[C@H](C5=CC=CC=C5C6=CC=C(C=C6)Cl)O)S(=O)(=O)C(F)(F)F)CCO [AZD4320] (first compound max 10 µM, 7x7, partner max 1 µM) >= -0.02?
## Output 0.0

## Input For this compound, is measured Bliss excess -0.02 or higher? Cc1cc2ncnn2cc1Nc1ncc2c(n1)n(C1CCOCC1)c(=O)n2C [AZD7648] + CCN(CCO)CCCOc1ccc2c(Nc3cc(CC(=O)Nc4cccc(F)c4)[nH]n3)ncnc2c1 [AZD2811] (first compound max 10 µM, 7x7, partner max 1 µM)
## Output 1.0

## Input Could you tell me if the measured Bliss excess of CC1(C)CCC(CN2CCN(c3ccc(C(=O)NS(=O)(=O)c4ccc(NCC5CCOCC5)c([N+](=O)[O-])c4)c(Oc4cnc5[nH]ccc5c4)c3)CC2)=C(c2ccc(Cl)cc2)C1 [Venetoclax] + CS(=O)(=O)CCNCc1ccc(-c2ccc3ncnc(Nc4ccc(OCc5cccc(F)c5)c(Cl)c4)c3c2)o1 [Lapatinib] (first compound max 1 µM, 7x7, partner max 10 µM) reaches -0.02 or more?
## Output 0.0

## Input Could you tell me if the measured Bliss excess of Cc1c2c(nn1C)CSCc1cc(n(C)n1)CSc1cc(c3ccccc3c1)OCCCc1c(C(=O)O)n(C)c3c-2c(Cl)ccc13 [AZD5991] + Cn1cnc2c(F)c(Nc3ccc(Br)cc3Cl)c(C(=O)NOCCO)cc21 [Selumetinib] (first compound max 1 µM, 7x7, partner max 3 µM) reaches -0.02 or more?
## Output 1.0

## Input Check this compound for Bliss excess at or above -0.02: CC1(C)CCC(CN2CCN(c3ccc(C(=O)NS(=O)(=O)c4ccc(NCC5CCOCC5)c([N+](=O)[O-])c4)c(Oc4cnc5[nH]ccc5c4)c3)CC2)=C(c2ccc(Cl)cc2)C1 [Venetoclax] + C[C@@H]1COCCN1C2=NC(=NC(=C2)C3(CC3)[S@](=N)(=O)C)C4=C5C=CNC5=NC=C4 [AZD6738] (first compound max 1 µM, 7x7, partner max 10 µM)
## Output 0.0

## Input Could you verify whether the entry CCc1c2c(nc3ccc(O)cc13)-c1cc3c(c(=O)n1C2)COC(=O)[C@]3(O)CC [SN-38] + CN(C)CCCOc1ccc(-c2ccc3ncc4c(c3c2)n(C2CCOCC2)c(=O)n4C)cn1 [AZD0156] (first compound max 0.3 µM, 7x7, partner max 1 µM) shows Bliss excess of no less than -0.02?
## Output 0.0
